src = patent US20200199213A1

Here the recorded OD at 560 nm is given for each entry.
study target: T1, human ANGPTL3/8 complex (human, UniProt Q9Y5C1 17-460; Q6UXH0 22-198, limits assumed)
T1 construct: also called hANGPTL3/8 complex; ANGTPL3/8 complex
T1 sequence 1: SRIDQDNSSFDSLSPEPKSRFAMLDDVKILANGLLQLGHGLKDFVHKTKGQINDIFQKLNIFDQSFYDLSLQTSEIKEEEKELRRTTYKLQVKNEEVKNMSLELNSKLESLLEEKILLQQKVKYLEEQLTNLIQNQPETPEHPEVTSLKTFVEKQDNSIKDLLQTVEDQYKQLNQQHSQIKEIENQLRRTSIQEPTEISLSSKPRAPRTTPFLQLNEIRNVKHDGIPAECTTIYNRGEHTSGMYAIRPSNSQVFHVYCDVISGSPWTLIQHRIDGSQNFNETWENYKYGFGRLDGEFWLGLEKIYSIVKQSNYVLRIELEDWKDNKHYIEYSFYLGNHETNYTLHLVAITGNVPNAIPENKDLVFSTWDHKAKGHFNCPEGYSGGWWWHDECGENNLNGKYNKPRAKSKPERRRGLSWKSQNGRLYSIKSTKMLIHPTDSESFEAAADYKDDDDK
T1 sequence 2: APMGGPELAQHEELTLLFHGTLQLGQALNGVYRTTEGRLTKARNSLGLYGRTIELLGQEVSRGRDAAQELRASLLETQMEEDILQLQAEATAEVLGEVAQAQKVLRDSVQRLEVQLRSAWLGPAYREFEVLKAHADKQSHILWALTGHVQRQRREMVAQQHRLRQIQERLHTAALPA
protocol notes: ELISA; Ab captured by anti-human Fc; biotinylated antigen at 0.046 nM
Reply with just the number (in OD 560 nm).

Kindly note the recorded OD at 560 nm for Ab with LC variant having a D31S mutation (SEQ ID NO:21) and a HC of SEQ ID NO:6 (antibody, human IgG4 S228P, kappa, F234A L235A, V domains shown, also called D31S Variant Ab; D31S Ab) VH: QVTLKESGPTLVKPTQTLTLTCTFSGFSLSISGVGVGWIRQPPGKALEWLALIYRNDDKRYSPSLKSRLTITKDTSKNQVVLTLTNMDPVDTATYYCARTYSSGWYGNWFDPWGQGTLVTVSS VL: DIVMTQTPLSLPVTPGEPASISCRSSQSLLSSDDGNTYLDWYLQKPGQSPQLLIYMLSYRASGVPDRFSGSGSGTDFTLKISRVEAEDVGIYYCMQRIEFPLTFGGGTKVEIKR , which is 0.149

Kindly note the recorded OD at 560 nm for anti-ANGPTL3/8 complex Ab having a LC of SEQ ID NO:5 and a HC of SEQ ID NO:6 (antibody, human IgG4 S228P, kappa, F234A L235A, V domains shown, In the ELISA assays tested as IgG from CHO supernatants; also called the Ab) VH: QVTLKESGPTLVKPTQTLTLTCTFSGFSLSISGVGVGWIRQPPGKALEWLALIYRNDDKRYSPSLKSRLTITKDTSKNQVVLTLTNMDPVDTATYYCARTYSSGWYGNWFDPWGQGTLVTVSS VL: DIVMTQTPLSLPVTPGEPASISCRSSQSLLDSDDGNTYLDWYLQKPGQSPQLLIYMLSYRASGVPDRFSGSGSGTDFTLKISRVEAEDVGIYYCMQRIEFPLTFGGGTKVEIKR , which is 0.078

Kindly note the recorded OD at 560 nm for Ab with LC variant having a E99Q mutation (SEQ ID NO:25) and a HC of SEQ ID NO:6 (antibody, human IgG4 S228P, kappa, F234A L235A, V domains shown, also called E99Q Variant Ab; E99Q Ab) VH: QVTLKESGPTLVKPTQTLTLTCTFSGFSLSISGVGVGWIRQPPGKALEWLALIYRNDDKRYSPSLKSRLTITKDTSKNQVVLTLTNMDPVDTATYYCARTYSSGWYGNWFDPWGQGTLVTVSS VL: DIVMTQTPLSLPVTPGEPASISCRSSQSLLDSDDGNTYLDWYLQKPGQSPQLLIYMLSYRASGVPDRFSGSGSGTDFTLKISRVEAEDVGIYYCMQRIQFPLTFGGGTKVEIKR , which is 0.149

Kindly note the recorded OD at 560 nm for Ab with LC variant having a D33A mutation (SEQ ID NO:22) and a HC of SEQ ID NO:6 (antibody, human IgG4 S228P, kappa, F234A L235A, V domains shown, also called D33A Variant Ab; D33A Ab) VH: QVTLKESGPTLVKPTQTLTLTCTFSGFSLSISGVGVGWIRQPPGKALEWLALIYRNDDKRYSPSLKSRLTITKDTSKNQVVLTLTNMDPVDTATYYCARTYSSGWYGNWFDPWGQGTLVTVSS VL: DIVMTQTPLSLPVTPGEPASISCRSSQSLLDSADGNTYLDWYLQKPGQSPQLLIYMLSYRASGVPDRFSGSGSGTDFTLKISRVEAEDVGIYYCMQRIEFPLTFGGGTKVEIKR , which is 0.111
